B1: wild type APOBEC3G prey [human] / wild type APOBEC3G bait [human] (parent)
chain 1: MKPHFRNTVERMYRDTFSYNFYNRPILSRRNTVWLCYEVKTKGPSRPPLDAKIFRGQVYSELKYHPEMRFFHWFSKWRKLHRDQEYEVTWYISWSPCTKCTRDMATFLAEDPKVTLTIFVARLYYFWDPDYQEALRSLCQKRDGPRATMKIMNYDEFQHCWSKFVYSQRELFEPWNNLPKYYILLHIMLGEILRHSMDPPTFTFNFNNEPWVRGRHETYLCYEVERMHNDTWVLLNQRRGFLCNQAPHKHGFLEGRHAELCFLDVIPFWKLDLDQDYRVTCFTSWSPCFSCAQEMAKFISKNKHVSLCIFTARIYDDQGRCQEGLRTLAEAGAKISIMTYSEFKHCWDTFVDHQGCPFQPWDGLDEHSQDLSGRLRAILQNQEN
chain 2: B1 chain 1

- Variants of: B1
- protocolNotes: yeast two-hybrid (β-galactosidase activity)
- experimentalConditions: with wild type APOBEC3G (A3G) bait [human]; parent: 0.5; read off a plot
Below is a list of entries, each paired with its recorded response value.
Kindly report the value followed by its unit.

mutantId: chain 1 Y124F
response: 0.05 OD540
//
mutantId: chain 1 Y315L
response: 0.5 OD540
//
mutantId: chain 1 Y124L
response: 0.042 OD540

Looking for the measured response of chain 1 W127Y , can you help?
0.031 OD540
